system: Eμ-Myc cells; experiment: Seahorse XF96 respirometry (OCR and ECAR); assay type: cell-based, mouse; conditions: after two hours treatment; read-out: Dose that produced a roughly 50% decrease in OCR from baseline
readout_kind: IC50 (µM)
Quick note: give the figure in µM, leave out the unit.

Reported IC50 of `N=C(NC(=N)N1CCCC1)Nc1cccc(OC(F)(F)F)c1` : 10
